Experiment: In vivo inhibition of HDAC
Type: organism-based
observation_type: pIC50
Quick note: pIC50 values are minus log10 of concentrations in mol/L.

Solved entries:
                                test_smiles  recorded_measurement
0  CC(/C=C/C(=O)NO)=C\[C@@H](C)C(=O)c1ccc(N(C)C)cc1                  7.00
1  Nc1ccccc1NC(=O)c1ccc(CNC(=O)OCc2cccnc2)cc1                  5.30

Let's switch to this molecule now.
Noted for `O=C(CCCCCN1C(=O)c2cccc3cccc(c23)C1=O)NO` : its pIC50 reads 6.00
